B1: PSD2 (parent)
chain: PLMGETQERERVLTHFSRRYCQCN

Variants of: B1
Experiment: protein stability index of a GFP-peptide fusion (GPS, HEK-293T) (PSI 1-6); higher = more stable;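 further: lentivirally expressed fusions sorted by FACS into six bins by GFP to DsRed ratio, PSI derived from sequencing read proportions per bin multiplied by bin number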
Conditions: c terminus: a fixed tail appended
ASSAY_READOUT: protein stability index
Numbers only.

Some solved entries appear below for comparison.
H15N ... 3.02
L2D ... 3.37
T14D ... 2.92

Need protein stability index for each of these variants.
1. R9C
2. S17P
3. L13D
4. T6S
5. L13S
6. E8G

1: 2.68; 2: 3.18; 3: 3.18; 4: 2.18; 5: 2.52; 6: 2.35

Need protein stability index for each of these variants.
1. Y20F
2. F16L
3. E10K
4. R18T
5. Q22N

1. 2.96
2. 3.79
3. 2.58
4. 3.09
5. 3.18

Need protein stability index for each of these variants.
1. Y20R
2. R9M
3. E10Y
4. E10D
5. Q7P
6. R11W

[3.95, 2.16, 1.73, 2.44, 2.77, 2.19]

Need protein stability index for each of these variants.
1. Q22S
2. H15V
3. N24P
4. P1V
5. F16M
6. N24T
7. L2M
8. F16Y

1. 3.04
2. 2.31
3. 3.02
4. 2.4
5. 3.09
6. 3.74
7. 2.56
8. 2.99

Need protein stability index for each of these variants.
1. N24Q
2. T6A
3. L13H
4. G4A

2.88
3.27
3.6
3.3

Need protein stability index for each of these variants.
1. E10L
2. R18C
3. R18E
4. R19W
5. M3I
6. T6K

[2.27, 1.77, 4.21, 2.14, 2.37, 2.14]

Need protein stability index for each of these variants.
1. Q7H
2. N24V
3. T6P

1. 3.23
2. 2.69
3. 3.02

Need protein stability index for each of these variants.
1. Q7Y
2. L2Y
3. R11S
4. R11V
5. C21H

1. 2.82
2. 1.9
3. 2.53
4. 3.46
5. 2.62
